- System Under Test: UniProt:Q96GD4
- Sequence (Q96GD4 whole entry): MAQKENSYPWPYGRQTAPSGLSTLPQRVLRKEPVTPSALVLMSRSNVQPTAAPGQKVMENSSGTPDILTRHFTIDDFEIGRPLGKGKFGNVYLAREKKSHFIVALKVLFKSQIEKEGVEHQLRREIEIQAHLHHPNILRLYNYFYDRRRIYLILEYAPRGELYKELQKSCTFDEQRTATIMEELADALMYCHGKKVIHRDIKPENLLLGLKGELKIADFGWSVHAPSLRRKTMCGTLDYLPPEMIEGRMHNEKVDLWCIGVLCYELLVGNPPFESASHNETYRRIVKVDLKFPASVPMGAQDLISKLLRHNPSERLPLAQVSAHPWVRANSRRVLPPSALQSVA
- Assay Method Text: Aurora B kinase inhibition
- Format: biochemical
- Cond: Table 1
Labelling: IC50 reported below 2000 nM becomes Met; at or above becomes Not met.

Here are 4 compounds together with their reported answers.
>  <Structure Notation>
CCCc1cnc(Nc2cccc(C3CCN(C(=O)C(C)(C)N)CC3)n2)s1

>  <Category Label>
Met

$$$$
>  <Structure Notation>
CC(C)(N)C(=O)N1CCC(c2cccc(Nc3ncc(-c4ccccc4)s3)n2)CC1

>  <Category Label>
Not met

$$$$
>  <Structure Notation>
CCCc1cnc(Nc2cccc(C3CCN(C(=O)CN(C)C)CC3)n2)s1

>  <Category Label>
Met

$$$$
>  <Structure Notation>
CCCc1cnc(Nc2cc(C(C)C)nc(C3CCN(C(=O)C(C)(C)N)CC3)n2)s1

>  <Category Label>
Not met

$$$$

Now consider the entry below.
Query: Given `CCCc1cnc(Nc2cccc(C3CCN(C(=O)[C@@H](C)N)CC3)n2)s1` , is recorded IC50 strictly lower than 2000 nM?
Reply: Met

###

- Assay Method Text: MTT cytotoxicity, MEFs Dko
- Format: cell-based
- Cond: mouse, MEFs Dko (bax−/−bak−/−)
Labelling: IC50 at 48 h reported below 4 µM becomes 1.0; at or above becomes 0.0.

Here are 4 compounds together with their reported answers.
>  <Structure Notation>
Cc1cc(Nc2cccc(CC3CCN(C(=O)c4cccc(Cl)c4F)CC3)n2)[nH]n1

>  <Category Label>
1.0

$$$$
>  <Structure Notation>
Cc1cc(Nc2nccs2)nc(CC2CCN(C(=O)c3cccc(Cl)c3F)CC2)n1

>  <Category Label>
0.0

$$$$
>  <Structure Notation>
Cc1cc(Nc2ccnc(CC3CCN(C(=O)c4cccc(Cl)c4F)CC3)n2)[nH]n1

>  <Category Label>
0.0

$$$$
>  <Structure Notation>
Cc1cc(Nc2ncc(C)s2)nc(CC2CCN(C(=O)c3cccc(Cl)c3F)CC2)n1

>  <Category Label>
1.0

$$$$

Now consider the entry below.
Query: Given `Cc1cc(Nc2ncc(Cl)s2)nc(CC2CCN(C(=O)c3cccc(Cl)c3F)CC2)n1` , is recorded IC50 at 48 h strictly lower than 4 µM?
Reply: 1.0

###

- System Under Test: Aurora A (Homo sapiens, UniProt O14965)
- Sequence (O14965 whole entry): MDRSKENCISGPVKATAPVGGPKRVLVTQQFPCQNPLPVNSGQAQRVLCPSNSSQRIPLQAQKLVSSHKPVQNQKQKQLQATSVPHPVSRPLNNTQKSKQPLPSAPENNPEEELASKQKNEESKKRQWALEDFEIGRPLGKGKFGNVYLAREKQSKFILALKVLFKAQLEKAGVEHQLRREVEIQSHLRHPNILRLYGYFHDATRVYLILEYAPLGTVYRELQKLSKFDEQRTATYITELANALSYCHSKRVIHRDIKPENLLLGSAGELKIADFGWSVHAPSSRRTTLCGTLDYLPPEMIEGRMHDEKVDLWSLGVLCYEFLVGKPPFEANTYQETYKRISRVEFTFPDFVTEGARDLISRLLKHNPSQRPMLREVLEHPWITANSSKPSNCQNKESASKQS
- Assay Method Text: Aurora A kinase inhibition (biochemical assay)
- Cond: Table 1; read-out: Aurora A, IC50
Quick reference for pIC50 among some molecules
For clarity, pIC50 is expressed as the negative log10 of concentration in mol/L.

The examples below pair each entry with its known result.
>  <Molecule>
CCCc1cnc(Nc2cc(CC)nc(C3CCN(C(=O)C(C)(C)N)CC3)n2)s1

>  <pIC50>
5.45

$$$$
>  <Molecule>
O=C(C1CNCCO1)N1CCC(c2cccc(Nc3ncc(-c4ccccc4)s3)n2)CC1 (centres unmarked)

>  <pIC50>
5.08

$$$$
>  <Molecule>
CCCc1cnc(Nc2cccc(C3CCN(C(=O)C(C)(C)N)CC3)n2)s1

>  <pIC50>
5.69

$$$$

Query: Quote pIC50 reported for `CC(C)(N)C(=O)N1CCC(c2cccc(Nc3ncc(-c4ccccc4)s3)n2)CC1` please.
Reply: 5.50

Query: Quote pIC50 reported for `CCCc1cnc(Nc2cccc(C3CCN(C(=O)[C@@H](C)N)CC3)n2)s1` please.
Reply: 5.78

These entries and their values trace back to paper PMC4932537.
